# IC50 per record follows
Test system: HBV
Assay: Cryopreserved primary human hepatocytes (PHH) HBV infection assay, extracellular HBsAg by CLIA
Assay type: cell-based
Conditions: Hepatitis B virus, Hepatocyte, 216 h; HBV-infected cryopreserved PHH; extracellular HBsAg at 9 days post-compound treatment; 4 parameter logistic curve fit
READOUT_KIND: IC50 (µM)

> print(dat)
                                   molecule  observed.result
1  CCOC(=O)c1c(NCc2cccc(C(F)(F)F)c2)nc(N2CC3(CCC3)C2)nc1-c1ccco1             3.26
2   COc1ccccc1CNc1nc(N)nc(-c2ccco2)c1C(=O)O             6.67
3           N#Cc1c(NCc2ccccc2)ncnc1-c1ccco1             2.03
4  CC(Nc1nc(N)nc(-c2ccco2)c1C#N)c1cccc(C(F)(F)F)c1 (stereo not shown)             0.47
5  COCCNc1nc(NCc2cccc(C(F)(F)F)c2)c(C#N)c(-c2ccco2)n1             3.89
6           N#Cc1c(NCC2CCCCC2)ncnc1-c1ccco1             6.83
7          Nc1nc(NCc2ccccc2N)cc(-c2cccs2)n1             6.62

* * *

Test system: HBV
Assay: Cryopreserved primary human hepatocytes (PHH) HBV infection assay, extracellular HBsAg by CLIA
Assay type: cell-based
Settings: Hepatitis B virus, Hepatocyte, 216 h; HBV-infected cryopreserved PHH; extracellular HBsAg at 9 days post-compound treatment; 4 parameter logistic curve fit
pIC50: −log10 of the molar value.
READOUT_KIND: pIC50

> print(dat)
                                   molecule  observed.result
1      Cc1nc(NCc2ccccc2)c(C#N)c(-c2ccco2)n1             5.16
2      CN(C)c1nc(NCc2ccccc2N)cc(-c2ccco2)n1             5.12
3  CS(=O)(=O)c1ccccc1C1(Nc2nc(N)nc(-c3ccco3)c2C#N)CC1             5.75
4  CCOC(=O)c1c(NCc2cccc(C(F)(F)F)c2)nc(NCC(C)C)nc1-c1ccco1             5.27
5  N#Cc1c(NCC2(c3ccccc3)CCCC2)ncnc1-c1ccco1             5.04
6  N#Cc1c(NCC(F)Cc2ccccc2Cl)nc(N)nc1-c1ccco1 (stereo not drawn)             4.94
7  Cc1nc(NCc2ccc(OC(C)C)c(Br)c2)c(C#N)c(-c2ccco2)n1             5.18
8  Nc1nc(NCc2cccc(C(F)(F)F)c2)c(C(=O)N2CCCC2)c(-c2ccco2)n1             5.03
9  CCOC(=O)c1c(NCc2cccc(C(F)(F)F)c2)nc(C)nc1-c1ccco1             5.13

* * *

System: HBV
Assay: Cryopreserved primary human hepatocytes (PHH) HBV infection assay, extracellular HBsAg by CLIA
Type: cell-based
Details: Hepatitis B virus, Hepatocyte, 216 h; HBV-infected cryopreserved PHH; extracellular HBsAg at 9 days post-compound treatment; 4 parameter logistic curve fit
READOUT_KIND: IC50 (µM)

> print(dat)
                                   compound  observed.result
1  CC(C)CNc1ncnc(-c2ccco2)c1C#N [Example 26]              5.7
2  CCNc1nc(NCc2cccc(C(F)(F)F)c2)c(C#N)c(-c2ccco2)n1 [Example 14]             2.76
3  CCOC(=O)c1c(NCc2cccc(C(F)(F)F)c2)nc(SC)nc1-c1ccco1 [Example 45]             8.16
4  CN(C)c1nc(NCc2cccc(C(F)(F)F)c2)c(C#N)c(-c2ccco2)n1 [Example 16]             6.75
5  CCOc1nc(NCc2cccc(C(F)(F)F)c2)c(C#N)c(-c2ccco2)n1 [Example 18]             6.02
6  CCCNc1nc(NCc2cccc(C(F)(F)F)c2)c(C#N)c(-c2ccco2)n1 [Example 15]             3.01
7  Cc1nc(NC2(c3ccccc3S(C)(=O)=O)CC2)c(C#N)c(-c2ccco2)n1 [Example 22]             2.73
8  COc1ccc(Br)c(CNc2nc(C)nc(-c3ccco3)c2C#N)c1OC [Example 20]             2.66
9  Nc1nc(NCc2cccc(C(F)(F)F)c2)c(C(=O)N2CCOCC2)c(-c2ccco2)n1 [Example 55]             10.1
